Biological target: Hck (UniProt P08631)
Sequence (P08631 whole entry, looked up): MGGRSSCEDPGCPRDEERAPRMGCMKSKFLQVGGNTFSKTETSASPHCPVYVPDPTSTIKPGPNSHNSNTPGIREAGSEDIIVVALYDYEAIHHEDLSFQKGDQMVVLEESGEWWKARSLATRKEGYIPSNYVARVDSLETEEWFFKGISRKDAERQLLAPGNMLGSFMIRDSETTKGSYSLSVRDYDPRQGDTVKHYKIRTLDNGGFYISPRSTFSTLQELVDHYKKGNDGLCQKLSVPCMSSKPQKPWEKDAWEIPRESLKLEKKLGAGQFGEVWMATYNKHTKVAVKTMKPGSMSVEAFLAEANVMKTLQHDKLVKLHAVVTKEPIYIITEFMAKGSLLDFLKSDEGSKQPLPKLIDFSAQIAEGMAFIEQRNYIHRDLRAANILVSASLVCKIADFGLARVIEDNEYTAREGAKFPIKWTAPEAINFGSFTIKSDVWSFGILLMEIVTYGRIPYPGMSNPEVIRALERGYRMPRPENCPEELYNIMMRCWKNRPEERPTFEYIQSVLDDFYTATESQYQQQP
Experiment: phosphorylation enrichment, bacterial display (enrichment ratio); higher = better substrate or ligand; peptides without Tyr show the background;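 note: 11-residue human phosphosite peptides and single-mutation variants displayed on the E. coli surface, counted by deep sequencing, each peptide's frequency after selection divided by its frequency in the unselected input library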;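 note: frequency after pTyr selection over input frequency; kinase dosed for 20-30% of maximal phosphorylation in three min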
Recorded phosphorylation enrichment split into classes group 1 = under 0.5, group 2 = from 0.5 up to 0.8, group 3 = 0.8 and over

Q) Field: class (phosphorylation enrichment) — entry: IGGHAYGDQFR [IDH1_Y135_R132G_YF]
A) group 1

Q) Field: class (phosphorylation enrichment) — entry: VEGISYDFIPT [CBS_Y308_G307S]
A) group 3

Q) Field: class (phosphorylation enrichment) — entry: GRVYVYHLSEQ [ITGAE_Y551_R552H]
A) group 2

Q) Field: class (phosphorylation enrichment) — entry: GTCGGYCSVLG [RAB18_Y202_A198T]
A) group 1

Q) Field: class (phosphorylation enrichment) — entry: QMVGMYASFYM [AVPR2_Y124_S127F]
A) group 3

Q) Field: class (phosphorylation enrichment) — entry: DWLRRYLENGK [HLA-A_Y195_E190D]
A) group 2

Q) Field: class (phosphorylation enrichment) — entry: KMKGEYYRYLA [YWHAG_Y130_D129E]
A) group 3

Q) Field: class (phosphorylation enrichment) — entry: DEWFLYKMRDI [CPS1_Y879_K875E]
A) group 2

Q) Field: class (phosphorylation enrichment) — entry: RKKEEYKMALF [F8_Y1990_YF]
A) group 1

###

Molecular target: Jak2 (UniProt O60674)
Sequence (O60674 whole entry, looked up): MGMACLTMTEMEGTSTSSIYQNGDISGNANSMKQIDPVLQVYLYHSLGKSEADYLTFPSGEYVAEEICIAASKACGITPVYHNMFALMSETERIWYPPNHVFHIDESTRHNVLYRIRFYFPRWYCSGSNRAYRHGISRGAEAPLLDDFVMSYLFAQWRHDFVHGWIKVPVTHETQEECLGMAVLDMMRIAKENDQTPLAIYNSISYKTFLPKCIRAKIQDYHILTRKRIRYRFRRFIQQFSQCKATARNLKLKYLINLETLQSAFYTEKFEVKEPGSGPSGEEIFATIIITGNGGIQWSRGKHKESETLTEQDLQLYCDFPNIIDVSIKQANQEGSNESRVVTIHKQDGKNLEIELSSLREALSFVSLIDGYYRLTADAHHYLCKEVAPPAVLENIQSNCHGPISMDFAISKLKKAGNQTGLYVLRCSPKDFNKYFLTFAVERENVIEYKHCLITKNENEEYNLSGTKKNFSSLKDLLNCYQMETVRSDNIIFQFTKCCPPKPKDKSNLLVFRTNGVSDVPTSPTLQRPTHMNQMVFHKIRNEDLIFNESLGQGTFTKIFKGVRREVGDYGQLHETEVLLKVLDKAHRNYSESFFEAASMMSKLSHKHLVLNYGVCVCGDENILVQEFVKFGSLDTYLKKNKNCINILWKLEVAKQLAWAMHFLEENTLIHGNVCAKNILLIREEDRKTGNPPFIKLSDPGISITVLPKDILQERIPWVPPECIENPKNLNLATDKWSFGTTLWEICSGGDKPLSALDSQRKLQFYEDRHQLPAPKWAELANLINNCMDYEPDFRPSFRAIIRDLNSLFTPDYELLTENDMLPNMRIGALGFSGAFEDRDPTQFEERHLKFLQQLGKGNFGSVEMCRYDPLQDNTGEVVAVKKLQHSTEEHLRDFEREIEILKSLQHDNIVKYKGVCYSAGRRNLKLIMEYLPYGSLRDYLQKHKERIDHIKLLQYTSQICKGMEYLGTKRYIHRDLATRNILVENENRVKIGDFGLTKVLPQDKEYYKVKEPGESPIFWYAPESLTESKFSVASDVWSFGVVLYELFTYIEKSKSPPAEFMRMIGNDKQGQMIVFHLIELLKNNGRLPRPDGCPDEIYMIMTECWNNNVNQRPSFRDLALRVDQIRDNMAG
Assay: phosphorylation enrichment, bacterial display (enrichment ratio); higher = better substrate or ligand; peptides without Tyr show the background
Attribute Measured: phosphorylation enrichment
Answer as a number with no unit attached.

Record ASPALYRLDLD [TRIL_Y352] , field phosphorylation enrichment: 0.873

Record NVADHYRVFKP [ATP6V0D2_Y271_G272R_YF] , field phosphorylation enrichment: 0.582

Record FSGKAYADEER [CRIM1_Y826] , field phosphorylation enrichment: 0.837

Record STGSRYQPLAS [NCAPD2_Y1325] , field phosphorylation enrichment: 0.596

Record VGSEDYGRDLT [SPTAN1_Y1792] , field phosphorylation enrichment: 1.24

Record FFWDGYMPRQF [GSS_Y270_R267W_YF] , field phosphorylation enrichment: 3.7

Record VQSASYLNDCL [MCM3AP_Y864_A867D] , field phosphorylation enrichment: 0.798

Record TFYQMYDKGLV [IARS2_Y231] , field phosphorylation enrichment: 0.797

Record DGNIDYAEFAK [MCFD2_Y138_Y135N] , field phosphorylation enrichment: 0.987

Record TFTVSYLPDMS [FLNC_Y1602_YF] , field phosphorylation enrichment: 0.975

Record IGHGSYAKVLL [PRKCZ_Y263_R260H] , field phosphorylation enrichment: 0.662

Record ATDLAYYLVRK [ASL_Y375] , field phosphorylation enrichment: 3.03

Record DYGSGYPNDPK [RNASEH2A_Y210] , field phosphorylation enrichment: 0.93

Record KSVITYSPTTG [ITGB3BP_Y32] , field phosphorylation enrichment: 0.586

Record CTTIRYNFMCN [TP53_Y234_H233R_YF] , field phosphorylation enrichment: 0.833

Record LWPIWYSCHRP [MRGPRX1_Y130_R131S] , field phosphorylation enrichment: 1.27

Record RIDPDYVGRVR [IGSF9_Y81] , field phosphorylation enrichment: 0.778

Record IINENYDYLKV [NUP98_Y1664_G1669V] , field phosphorylation enrichment: 0.956

Record GYGGGYGGVLT [KRT19_Y65_A60G] , field phosphorylation enrichment: 0.575

Record LGSNGCKKLLK [SEPSECS_Y334_Y334C] , field phosphorylation enrichment: 1.06

Record QELRRYLKSSV [MICA_Y194_G198S] , field phosphorylation enrichment: 0.457

Record SRDTCYLVLAV [AMH_Y195_R194C] , field phosphorylation enrichment: 1.4

Record DRPASYLDKVR [KRT17_Y98_L95P] , field phosphorylation enrichment: 0.556

Record TLNHQYDYTFD [CSNK1A1_Y292] , field phosphorylation enrichment: 0.783

Record DRFDNYIEKVR [DES_Y122_A120D] , field phosphorylation enrichment: 0.755

Record PFTRNYFVRAV [CYBA_Y87_YF] , field phosphorylation enrichment: 0.93

Record QEGPEYWDRET [HLA-A_Y83_Q86R] , field phosphorylation enrichment: 2.21

Record ETKENYGKTLK [CHL1_Y291] , field phosphorylation enrichment: 0.504

Record ENEGTYVCIAT [ADAMTSL3_Y1365] , field phosphorylation enrichment: 1.1

Record MALDRYVAICK [OR2B11_Y127] , field phosphorylation enrichment: 0.665

Record PSTFRYERGSR [INPPL1_Y663_P659S_YF] , field phosphorylation enrichment: 0.459

Record EDKFMYFEFPQ [PTEN_Y240] , field phosphorylation enrichment: 2.05

Record EADRKYEEVAR [TPM3_Y163] , field phosphorylation enrichment: 1.19

Record QDEHGYISLCF [HSPB1_Y133_R136L] , field phosphorylation enrichment: 3.37

Record ATPKGYETDAS [OTC_Y223_P225T] , field phosphorylation enrichment: 0.667

Record CTTIHYMYMCN [TP53_Y234_N235M] , field phosphorylation enrichment: 0.973

Record FNVLQYVVPKV [EIF3A_Y382_E386K] , field phosphorylation enrichment: 2.2

Record LSDGPYSNSYE [EPOR_Y485_P488S] , field phosphorylation enrichment: 1.38

Record PSFSEYASVQV [SIRPA_Y496] , field phosphorylation enrichment: 1.02

Record AFHGEYIPTVF [RAC2_Y32_P29H] , field phosphorylation enrichment: 0.571

Record GGMAEYTRLHN [EHHADH_Y4] , field phosphorylation enrichment: 0.691

Record SLGKGYSVGGC [MC4R_Y35_D37V] , field phosphorylation enrichment: 0.846

Record IDDNEYAFLKA [HNF4A_Y286_YF] , field phosphorylation enrichment: 1.13

Record LAARYYNWVSF [FLT4_Y1231] , field phosphorylation enrichment: 2.14

Record TTPGPYRSIYF [MPG_Y71] , field phosphorylation enrichment: 0.433

Record DEFLEHRRIVG [FAM221A_Y20_Y20H_YF] , field phosphorylation enrichment: 0.716

Record LTQRTYMSENA [GPAA1_Y49] , field phosphorylation enrichment: 0.65

Record VEGISYDFIPT [CBS_Y308_G307S] , field phosphorylation enrichment: 0.984

Record MTKEQYIKMNQ [ARFGEF2_Y797_R802Q] , field phosphorylation enrichment: 0.706

Record IMAYFYMCDRA [CASD1_Y382] , field phosphorylation enrichment: 1.46

Record VVLEDYLDIKN [CLCNKB_Y138] , field phosphorylation enrichment: 1.07

Record MDQAEYQAKIR [DHX58_Y518] , field phosphorylation enrichment: 0.659

Record PLFRVYGLESL [INSR_Y94_L89P] , field phosphorylation enrichment: 1.43

Record IVAREYYSDAD [CAMK2A_Y106_E109D] , field phosphorylation enrichment: 0.959

Record FSLIHYAGIVV [MYH7_Y582_D587V] , field phosphorylation enrichment: 1.3

Record AKNKDYMSFIR [GNE_Y197_I200F] , field phosphorylation enrichment: 0.647

Record PDGVEYLKNNP [GRIN3A_Y831_D835N] , field phosphorylation enrichment: 1.31

Record VVQGIYGYHHH [UFSP2_Y285_Y290H] , field phosphorylation enrichment: 0.555

###

Target: MERTK (UniProt Q12866)
Sequence (Q12866 whole entry, looked up): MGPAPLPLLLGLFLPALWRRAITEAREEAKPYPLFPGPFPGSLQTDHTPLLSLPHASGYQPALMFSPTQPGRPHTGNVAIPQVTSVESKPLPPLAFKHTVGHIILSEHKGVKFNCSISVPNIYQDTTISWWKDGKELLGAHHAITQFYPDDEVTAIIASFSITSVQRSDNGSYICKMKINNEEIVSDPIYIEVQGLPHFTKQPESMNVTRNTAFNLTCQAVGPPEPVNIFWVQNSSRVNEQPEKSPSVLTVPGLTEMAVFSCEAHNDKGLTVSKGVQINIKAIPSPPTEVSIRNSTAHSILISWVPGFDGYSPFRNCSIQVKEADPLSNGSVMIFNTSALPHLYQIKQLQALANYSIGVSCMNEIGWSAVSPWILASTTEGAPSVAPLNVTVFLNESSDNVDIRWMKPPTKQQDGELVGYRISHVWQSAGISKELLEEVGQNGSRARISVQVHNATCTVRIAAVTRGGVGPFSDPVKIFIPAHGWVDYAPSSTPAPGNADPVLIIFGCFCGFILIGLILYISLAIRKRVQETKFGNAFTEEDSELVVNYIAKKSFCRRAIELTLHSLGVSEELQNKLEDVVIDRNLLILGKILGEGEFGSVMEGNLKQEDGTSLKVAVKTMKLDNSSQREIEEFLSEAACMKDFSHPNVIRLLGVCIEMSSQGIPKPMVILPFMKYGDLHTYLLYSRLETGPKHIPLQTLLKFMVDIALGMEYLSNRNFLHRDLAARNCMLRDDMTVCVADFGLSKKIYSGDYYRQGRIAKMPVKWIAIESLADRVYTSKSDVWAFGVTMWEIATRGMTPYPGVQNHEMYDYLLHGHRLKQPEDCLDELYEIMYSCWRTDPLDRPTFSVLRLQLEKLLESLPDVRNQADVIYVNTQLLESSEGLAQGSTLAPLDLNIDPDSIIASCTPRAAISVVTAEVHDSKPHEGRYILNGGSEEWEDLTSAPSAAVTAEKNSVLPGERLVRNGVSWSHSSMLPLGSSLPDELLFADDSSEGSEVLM
Assay: phosphorylation enrichment, bacterial display (enrichment ratio); higher = better substrate or ligand; peptides without Tyr show the background
Attribute Measured: phosphorylation enrichment
Answer as a number with no unit attached.

Record VYYDLYGGEKF [PTPN11_Y66_D61V] , field phosphorylation enrichment: 8.55

Record RLFARYFQGDL [PDK3_Y337_YF] , field phosphorylation enrichment: 0.525

Record IVAREYFSDAD [CAMK2A_Y106_E109D_YF] , field phosphorylation enrichment: 0.378

Record KRGVSYILKLA [SERPINB1_Y84_A82V] , field phosphorylation enrichment: 0.446

Record CGTPDYIDPEI [PRKCG_Y521_A523D] , field phosphorylation enrichment: 0.454

Record VFLGAYDCFLP [SLC22A5_Y486_R488C_YF] , field phosphorylation enrichment: 5.67

Record PFTRNYFVRAV [CYBA_Y87_YF] , field phosphorylation enrichment: 0.544

Record HHFAAYFQQGD [GPI_Y351_R347H] , field phosphorylation enrichment: 0.475

Record SIKDKYVTALF [KCNH2_Y611_YF] , field phosphorylation enrichment: 0.471

Record DNKALYDICFR [TUBB3_Y208_E205K] , field phosphorylation enrichment: 7.18

Record QGRQTYLPQPA [DDR2_Y813] , field phosphorylation enrichment: 0.433

Record SGSFRYGSSFE [SELE_Y390_C394F] , field phosphorylation enrichment: 0.426

Record NRLTDYFELLL [BBS10_Y536_P539L_YF] , field phosphorylation enrichment: 0.442
